Data origin, for the record: patent US20250296938A1

- Tested System: Rho-A (Homo sapiens, UniProt P61586)
- Sequence (P61586 1-190): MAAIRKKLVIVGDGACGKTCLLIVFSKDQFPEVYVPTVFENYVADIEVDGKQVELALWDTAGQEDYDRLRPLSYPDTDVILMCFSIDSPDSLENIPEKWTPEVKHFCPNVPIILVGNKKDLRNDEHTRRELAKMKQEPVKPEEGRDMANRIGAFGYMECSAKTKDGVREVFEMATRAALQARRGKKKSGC
- Assay Overview: Ras GTP binding domain inhibition assay (Cy3-GTP/Cy5-GTP competition)
- Experimental Parameters: without SOS, read-out: Rho-A: % inh.
Result Type: inhibition at 20 µM

# count of solved cases: 10
                                   molecule     result
0  COCC(C)Nc1nc(-c2nccn2C)nc2sc(-c3ccn(C)n3)c(-c3ccccc3)c12 (stereo not drawn) [drawing 999]         0%
1  Cn1ccc(-c2sc3nc(-c4nccn4C)nc(N[C@H]4C[C@@H](O)C4)c3c2-c2ccccc2)n1 [drawing 1043]  26 to 50%
2  Cn1ccc(-c2sc3nc(-c4nccn4C)nc(O)c3c2-c2ccccc2)n1 [drawing 1039]  26 to 50%
3  CO[C@H]1C[C@@H](Nc2nc(-c3nccn3C)nc3sc(-c4ccn(C)n4)c(-c4ccccc4)c23)C1.Cl [drawing 1040]  51 to 75%
4  CCOC1CCN(c2nc(-c3nccn3C)nc3sc(-c4ccn(C)n4)c(-c4ccccc4)c23)C1 (stereo not drawn)  26 to 50%
5  COc1nscc1-c1sc2nc(-c3nccn3C)nc(N3CCC(OC)C3)c2c1-c1ccccc1 (stereo not drawn) [drawing 975]   1 to 25%
6  Cn1ccc(-c2sc3nc(-c4nccn4C)nc(N[C@@H]4CC[C@H](O)C4)c3c2C2=CC=CCC=C2)n1 (racemic)  26 to 50%
7  COCC(C)Nc1nc(-c2nccn2C)nc2sc(-c3ccn(C)n3)c(-c3ccc(OC)cc3)c12 (stereo not drawn) [drawing 1004]   1 to 25%
8  Oc1nc(-c2ncc3n2CCCC3)nc2c(-c3ccccn3)csc12 [drawing 968]  26 to 50%
9  CO[C@H]1C[C@@H](Nc2nc(-c3ncc[nH]3)nc3sc(-c4ccn(C)n4)c(-c4ccccc4)c23)C1 [drawing 1045]  26 to 50%

Incoming: Query: inhibition at 20 µM; subject: CCN(CC)C(=O)c1nc(-c2nccn2C)nc(O)c1O [drawing 964]
Outgoing: 26 to 50%

Incoming: Now this one: Oc1nc(-c2cn3cccnc3n2)nc2c(-c3ccccn3)csc12 [drawing 983]
Outgoing: 26 to 50%

Incoming: Now this one: COCCCNc1nc(-c2nccn2C)nc2sc(-c3ccn(C)n3)c(-c3ccccc3)c12 [drawing 1001]
Outgoing: 0%

Incoming: Now this one: Cn1ccnc1-c1nc(O)c(O)c(C(=O)N2CCCC2)n1 [drawing 963]
Outgoing: 1 to 25%

Incoming: Now this one: COC1CCN(c2nc(-c3nccn3C)nc3sc(-c4ccccc4Cl)c(-c4cscn4)c23)C1 (stereo not drawn) [drawing 984]
Outgoing: 0%

Incoming: Now this one: COC1CCC(Nc2nc(-c3nccn3C)nc3sc(-c4cccc5[nH]ncc45)c(-c4ccccc4)c23)C1 (stereo not drawn) [drawing 1023]
Outgoing: 26 to 50%

* * *

- Tested on: KRas Q61H mutant
- Assay Overview: Ras GTP binding domain inhibition assay (Cy3-GTP/Cy5-GTP competition)
- Design: species or system human
- Experimental Parameters: 20 μM; with SOS
Result Type: KRas Q61H mutant + SOS: % inh.

                                   molecule                     result_type                  result
0  O=C(NCc1ccccc1)c1nc(-c2ccccn2)nc(O)c1O [drawing 821]  KRas Q61H mutant + SOS: % inh.   C (51-75% inhibition)
1  CCN(CC)C(=O)c1nc(-c2nccn2C)nc(O)c1O [drawing 829]  KRas Q61H mutant + SOS: % inh.   B (26-50% inhibition)
2  COCCNc1nc(-c2nccn2C)nc2sc(-c3cccc(OC)c3)c(-c3ccc(OC)cc3)c12 [drawing 875]  KRas Q61H mutant + SOS: % inh.  D (76-100% inhibition)
3  Oc1nc(-c2cn3ccccc3n2)nc2c(-c3ccccn3)csc12 [drawing 816]  KRas Q61H mutant + SOS: % inh.   B (26-50% inhibition)
4  COC1CCN(c2nc(-c3nccn3C)nc3sc(-c4ccncc4C)c(-c4ccccc4)c23)C1.Cl (centres unmarked)  KRas Q61H mutant + SOS: % inh.   B (26-50% inhibition)

Incoming: Query: KRas Q61H mutant + SOS: % inh.; subject: COC1CCN(c2nc(-c3nccn3C)nc3sc(-c4ccn(C)n4)c(-c4ccccc4)c23)CC1 [drawing 856]
Outgoing: C (51-75% inhibition)

Incoming: Now this one: CC(C)CN(C)C(=O)c1nc(-c2ccccn2)nc(O)c1O [drawing 798]
Outgoing: B (26-50% inhibition)

Incoming: Now this one: COc1ccc(-c2c(-c3ccn(C)n3)sc3nc(-c4nccn4C)nc(N4CCC(OC)C4)c23)cc1 (centres unmarked) [drawing 868]
Outgoing: B (26-50% inhibition)

Incoming: Now this one: CC(C)NC(=O)c1nc(-c2nccn2C)nc(O)c1O [drawing 830]
Outgoing: C (51-75% inhibition)

Incoming: Now this one: COCC1CN(c2nc(-c3nccn3C)nc3sc(-c4cccc(OC)c4F)c(-c4ccc(OC)cc4)c23)C1 [drawing 805]
Outgoing: D (76-100% inhibition)

* * *

- System: KRas wild type
- Assay Overview: Ras GTP binding domain inhibition assay (Cy3-GTP/Cy5-GTP competition)
- Parameters: species or system human
- Experimental Parameters: 20 μM; without SOS
Result Type: KRas wild type: % inh.

# count of solved cases: 5
                                   compound   tested_system                  result
0  COCCCN(C)c1nc(-c2nccn2C)nc2sc(-c3ccn(C)n3)c(-c3ccccc3)c12 [drawing 865]  KRas wild type    A (1-25% inhibition)
1  COc1ccc(-c2sc3nc(-c4nccn4C)nc(N4CCC(OC)C4)c3c2-c2ccccc2)cn1.Cl (centres unmarked)  KRas wild type    A (1-25% inhibition)
2  COCCn1ccnc1-c1nc(O)c2scc(-c3ccccn3)c2n1 [drawing 852]  KRas wild type  D (76-100% inhibition)
3  Cn1ccc(-c2sc3nc(-c4nccn4C)nc(NC4CCOCC4)c3c2-c2ccccc2)n1 [drawing 862]  KRas wild type   B (26-50% inhibition)
4  COc1ncccc1-c1sc2nc(-c3nccn3C)nc(N3CCC(OC)C3)c2c1-c1ccccc1.Cl (centres unmarked)  KRas wild type   C (51-75% inhibition)

Incoming: Item Oc1nc(-c2cn3ccccc3n2)nc2c(-c3ccccn3)csc12 [drawing 816] with KRas wild type - KRas wild type: % inh.?
Outgoing: C (51-75% inhibition)

Incoming: Now this one: Oc1nc(-c2cn(-c3ccccc3)cn2)nc2c(-c3ccccn3)csc12 [drawing 847]
Outgoing: A (1-25% inhibition)

Incoming: Now this one: Oc1nc(-c2cn3cccnc3n2)nc2c(-c3ccccn3)csc12 [drawing 848]
Outgoing: A (1-25% inhibition)

Incoming: Now this one: CN(Cc1ccccc1)C(=O)c1nc(-c2ccccn2)nc(O)c1O [drawing 799]
Outgoing: C (51-75% inhibition)

Incoming: Now this one: COC1CCN(c2nc(-c3nccn3C)nc3sc(-c4cccnc4)c(-c4ccccc4)c23)C1.Cl (centres unmarked)
Outgoing: C (51-75% inhibition)

Incoming: Now this one: COC1CCN(c2nc(-c3nccn3C)nc3sc(-c4cnn(C)c4)c(-c4ccccc4)c23)C1.Cl (centres unmarked)
Outgoing: B (26-50% inhibition)

Incoming: Now this one: COCCNc1nc(-c2nccn2C)nc2sc(-c3cc(OC)ccc3Cl)c(-c3ccccc3)c12 [drawing 871]
Outgoing: B (26-50% inhibition)

Incoming: Now this one: COC1CCN(c2nc(-c3nccn3C)nc3sc(-c4ccnc(N(C)C)c4)c(-c4ccccc4)c23)C1.Cl (centres unmarked)
Outgoing: C (51-75% inhibition)

Incoming: Now this one: Oc1nc(-c2nccn2Cc2ccccn2)nc2c(-c3ccccn3)csc12 [drawing 851]
Outgoing: D (76-100% inhibition)

Incoming: Now this one: COC1CCN(c2nc(-c3nccn3C)nc3sc(-c4ccn(C)n4)c(-c4ccccc4)c23)CC1 [drawing 856]
Outgoing: 0 (0% inhibition)

Incoming: Now this one: COCCN(C)C(=O)c1nc(-c2ccccn2)nc(O)c1O [drawing 810]
Outgoing: B (26-50% inhibition)

Incoming: Now this one: COCCn1cc(-c2sc3nc(-c4nccn4C)nc(N4CCC(OC)C4)c3c2-c2ccccc2)cn1.Cl (centres unmarked)
Outgoing: D (76-100% inhibition)

Incoming: Now this one: COc1cccc(-c2csc3c(O)nc(-c4nccn4C)nc23)c1Cl [drawing 878]
Outgoing: A (1-25% inhibition)

Incoming: Now this one: COCC(C)Nc1nc(-c2nccn2C)nc2sc(-c3ccccc3Cl)c(-c3cscn3)c12 (centres unmarked) [drawing 854]
Outgoing: B (26-50% inhibition)

Incoming: Now this one: COC1CCN(c2nc(-c3nccn3C)nc3sc(-c4ccncc4C)c(-c4ccccc4)c23)C1.Cl (centres unmarked)
Outgoing: B (26-50% inhibition)

Incoming: Now this one: COCCc1ccc(Oc2nc(-c3ccccn3)nc(O)c2OC)cc1 [drawing 814]
Outgoing: D (76-100% inhibition)

Incoming: Now this one: O=C(c1nc(-c2ccccn2)nc(O)c1O)N1CCCC1 [drawing 831]
Outgoing: C (51-75% inhibition)

Incoming: Now this one: Cn1ccc(-c2sc3nc(-c4nccn4C)nc(N4CCC5(CCOC5)C4)c3c2-c2ccccc2)n1 (centres unmarked) [drawing 857]
Outgoing: A (1-25% inhibition)
